meta.source: patent US9301923B2

assay: Particle size and PDI by dynamic light scattering (Malvern Zetasizer); assay type: physicochemical; conditions: lipid/DSPC/CHOL/AVANTI 880150P 50/28/18/4, N/P 3.43
Listed below: Final size (nm) values for each entry.
Hi! Could you send only the number? It should be in nm, unit omitted.

Task: Given the molecule CCCCC/C=C\C/C=C\CCCCCCCCOCC(CN(C)C)OCCCCO[C@H]1CC[C@@]2(C)C(=CCC3C2CC[C@@]2(C)C3CC[C@@H]2[C@H](C)CCCC(C)C)C1 (stereo partly drawn) [E0173, reference compound] , what is its reported Final size (nm)?
Result: 98

Task: Then this molecule: CCCCC/C=C\C/C=C\CCCCCCCCOCC(CN1CC[C@H]2OC(C)(C)O[C@H]2C1)OCCOCCO[C@H]1CC[C@@]2(C)C(=CCC3C2CC[C@@]2(C)C3CC[C@@H]2[C@H](C)CCCC(C)C)C1 (stereo partly drawn)
Result: 83

Task: Continue with CCCCC/C=C\C/C=C\CCCCCCCCOCC(CN1CC2CCCN(C(=O)OC(C)(C)C)C2C1)OCCOCCO[C@H]1CC[C@@]2(C)C(=CCC3C2CC[C@@]2(C)C3CC[C@@H]2[C@H](C)CCCC(C)C)C1 (stereo partly drawn)
Result: 95

Task: Cool, now CCCCC/C=C\C/C=C\CCCCCCCCOCC(CN(C)C)OCCOCCO[C@H]1CC[C@@]2(C)C(=CC[C@H]3[C@@H]4CC[C@H]([C@H](C)CCCC(C)C)[C@@]4(C)CC[C@@H]32)C1 (stereo partly drawn) [E0172, reference compound]
Result: 170

Task: Record: CCCCC/C=C\C/C=C\CCCCCCCCOCC(CN1CCCCC1)OCCOCCNC(=O)O[C@H]1CC[C@@]2(C)C(=CCC3C2CC[C@@]2(C)C3CC[C@@H]2[C@H](C)CCCC(C)C)C1 (stereo partly drawn)
Result: 103

Task: Another: CCCCC/C=C\C/C=C\CCCCCCCCCCC(CN(C)C)OC(=O)CCC(=O)O[C@H]1CC[C@@]2(C)C(=CCC3C2CC[C@@]2(C)C3CC[C@@H]2[C@H](C)CCCC(C)C)C1 (stereo partly drawn) [E0174, reference compound]
Result: 117

Task: # repeat for CCCCC/C=C\C/C=C\CCCCCCCCOCC(CN1CCC(OC)CC1)OCCOCCO[C@H]1CC[C@@]2(C)C(=CCC3C2CC[C@@]2(C)C3CC[C@@H]2[C@H](C)CCCC(C)C)C1 (stereo partly drawn)
Result: 168

Task: Next record, please: CCCCC/C=C\C/C=C\CCCCCCCCOCC(CN1CCC2(CC1)OCCCO2)OCCOCCO[C@H]1CC[C@@]2(C)C(=CCC3C2CC[C@@]2(C)C3CC[C@@H]2[C@H](C)CCCC(C)C)C1 (stereo partly drawn)
Result: 92

Task: What about CCCCC/C=C\C/C=C\CCCCCCCCOC[C@H](CN1CCCCC1)OCCOCCO[C@H]1CC[C@@]2(C)C(=CCC3C2CC[C@@]2(C)C3CC[C@@H]2[C@H](C)CCCC(C)C)C1 (stereo partly drawn) ?
Result: 110

Task: Same question for CCCCC/C=C\C/C=C\CCCCCCCCOCC(CN1CC=CC1)OCCOCCO[C@H]1CC[C@@]2(C)C(=CCC3C2CC[C@@]2(C)C3CC[C@@H]2[C@H](C)CCCC(C)C)C1 (stereo partly drawn) please.
Result: 87
